Protocol Details: RPMI8226 myeloma cell viability, profiling panel, resazurin fluorescence, basal, 24 h, PK04 Diversity Set (AID 1180);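 further: RPMI8826 multiple myeloma cell line at 5000 cells per well; test concentration not given here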
Assay Setup: higher = more signal
Observable: z-score
Form field (numeric): enter value without unit.

Ask | Please give the measured z-score for this compound: CCC1=NOC(CCC2CC(OC(=O)NCc3cccc4c3OCO4)CC3(CCCC(COC(=O)NCCc4ccccc4OC)O3)O2)C1 (stereo not drawn)
Reply | 0.718

Ask | Look up z-score for this compound: COc1ccc(O[C@H]2C=C[C@@H](c3ccccc3)O[C@@H]2CON=C(C)C)cc1
Reply | 0.224

Ask | Which z-score is listed for C#CCCCON=C1C[C@@H](O)[C@@H](O)[C@@H]2[C@@H]3C(=O)N(c4ccc(F)cc4F)C(=O)[C@@H]3CC[C@@H]12 ?
Reply | 0.33

Ask | // lookup z-score for CCOC(=O)[C@H](Cc1ccccc1)NC(=O)CCC1CC(OC(=O)NCc2cccc3ccccc23)CC2(CCCC(COC(=O)NCC(c3ccccc3)c3ccccc3)O2)O1 (stereo partly drawn)
Reply | 1.27

Ask | // query z-score value for entry CCN1C(=O)[C@H]2[C@H]3[C@H](O)[C@H](O)CC(=O)[C@H]3CC[C@H]2C1=O
Reply | -0.0216

Ask | For the compound shown here, CCCCc1nc2c(c3c1C[C@H](C)OC3)CN(CCOc1ccccc1)CC2 , give the reported z-score.
Reply | 0.386

Ask | Returns the measured z-score for the input compound. Input: COC(=O)CC=C[C@@H](C)[C@@H](C=NO[C@@H](C)c1cn([C@H](CO)Cc2ccccc2)nn1)OC
Reply | -0.514

Ask | Would you mind telling me what z-score value was observed for O=C1C[C@@H](O)[C@@H](O)[C@@H]2[C@@H]3C(=O)N(Cc4ccccc4)C(=O)[C@@H]3CC[C@@H]12 ?
Reply | 0.112
